# tested-system: CLR/RAMP1 receptor (Homo sapiens, UniProt O60894+Q16602)
# Sequence (O60894 27-148, one chain of several): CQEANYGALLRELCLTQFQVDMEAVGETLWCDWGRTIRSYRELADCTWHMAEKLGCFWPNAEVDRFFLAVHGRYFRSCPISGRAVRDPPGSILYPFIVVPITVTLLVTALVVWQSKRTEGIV
# measurement-description: CLR/RAMP1 cAMP receptor-activation assay (agonist mode);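 further: Dose–response over 10 threefold dilutions from 1.0 µM, run in duplicate, luminescent cAMP detection (RLU), activity scaled between vehicle control (0%) and maximal control (100%)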
# Assay type: cell-based
# recorded-conditions: agonist mode; positive control β-CGRP
property-name: CLR/RAMP1 Max Activity % of positive control

>>> reported_measurement("miniPEG-K(PAL)GCRFGTCTVQKLAHQIYQFTDKDKDSAPVDPSSPHSY-NH2 [SEQ ID NO: 46]")
"60 % of positive control"
>>> reported_measurement("miniPEG-K(PAL)GCRFGTCT(D-Val)QKLAHQIYQFTDKDVAPRSKISPQGY-NH2 [SEQ ID NO: 211]")
"91 % of positive control"
>>> reported_measurement("Ace-PEG3-K(Hexadecanoyl-isoGlu-PEG3-PEG3)GCRFGTCTVQKLAHQIYQFTDKDKDNVAPRSKISPQGY-NH2 [SEQ ID NO: 153]")
"78 % of positive control"
>>> reported_measurement("(Glp)RPRLSHKGP(Nle)PF-miniPEG-K(PAL)GCRFGTCTVQKLAHQIYQFTDKDVAPRSKISPQGY-NH2 [SEQ ID NO: 228]")
"130 % of positive control"
>>> reported_measurement("Ace-PEG3-K(Hexadecanoyl-isoGlu)GCRFGTCTVQKLAHQIYQFTDKDKDNVAPRSKISPQGY-NH2 [SEQ ID NO: 151]")
"85 % of positive control"
>>> reported_measurement("Sar-RVYVHPA-miniPEG-K(PAL)GCRFGTCTVQKLAHQIYQFTDKDVAPRSKISPQGY-NH2 [SEQ ID NO: 234]")
"132 % of positive control"

Ask | Please give measured CLR/RAMP1 Max Activity % of positive control of the following entry: Ace-KRPPGFS-DβNal-I-miniPEG-K(PAL)GCRFGTCTVQKLAHQIYQFTDKDVAPRSKISPQGY-NH2 [SEQ ID NO: 231]
Reply | 115 % of positive control

Ask | Please give measured CLR/RAMP1 Max Activity % of positive control of the following entry: Ace-PEG3-K(Hexadecanoyl-isoGlu-PEG3)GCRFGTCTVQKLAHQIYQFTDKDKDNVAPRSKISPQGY-NH2 [SEQ ID NO: 152]
Reply | 80 % of positive control

Ask | Please give measured CLR/RAMP1 Max Activity % of positive control of the following entry: miniPEG-K(PAL)GCRFGTCTVQKLAHQIYQFTDKDKQDSAPVDPSSPHSY-NH2 [SEQ ID NO: 51]
Reply | 65 % of positive control

Ask | Please give measured CLR/RAMP1 Max Activity % of positive control of the following entry: Ace-PEG3-K([19-carboxy-nonadecanoyl]-isoGlu-Peg3-Peg3)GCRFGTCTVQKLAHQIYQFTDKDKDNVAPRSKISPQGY-NH2 [SEQ ID NO: 157]
Reply | 100 % of positive control

Ask | Please give measured CLR/RAMP1 Max Activity % of positive control of the following entry: AcePEG3--K([17-carboxy-heptadecanoyl]-isoGlu-Peg3-Peg3)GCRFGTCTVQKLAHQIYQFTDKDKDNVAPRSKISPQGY-NH2 [SEQ ID NO: 158]
Reply | 95 % of positive control

----------
# tested-system: CLR/RAMP3 receptor (Homo sapiens, UniProt O60896+Q16602)
# Sequence (O60896 24-148, one chain of several): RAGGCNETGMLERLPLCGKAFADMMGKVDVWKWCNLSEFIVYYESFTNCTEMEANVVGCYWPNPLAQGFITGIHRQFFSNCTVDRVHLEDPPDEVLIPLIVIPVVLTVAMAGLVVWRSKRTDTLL
# measurement-description: CLR/RAMP3 cAMP receptor-activation assay (agonist mode)
# Type: cell-based
# recorded-conditions: CHO-K1 cells stably expressing CLR/RAMP3; cAMP assay
// EC50 lookup, one value per entry
Answer format: numeric, nM implied, no suffix.

>>> reported_measurement("miniPEG-K(PAL)GCRFGTCTVQKLAHQIYQFTDKDKDNSAPVDPSSPHSY-NH2 [SEQ ID NO: 28]")
0.06

Ask | Please give measured EC50 of the following entry: miniPEG-K(PAL)GCRFGTCTVQKLAHQIYQFTDKDSAPVDPSSPHSY-NH2 [SEQ ID NO: 48]
Reply | 0.07

----------
# tested-system: CLR/RAMP2 receptor (Homo sapiens, UniProt O60895+Q16602)
# Sequence (Q16602 23-461): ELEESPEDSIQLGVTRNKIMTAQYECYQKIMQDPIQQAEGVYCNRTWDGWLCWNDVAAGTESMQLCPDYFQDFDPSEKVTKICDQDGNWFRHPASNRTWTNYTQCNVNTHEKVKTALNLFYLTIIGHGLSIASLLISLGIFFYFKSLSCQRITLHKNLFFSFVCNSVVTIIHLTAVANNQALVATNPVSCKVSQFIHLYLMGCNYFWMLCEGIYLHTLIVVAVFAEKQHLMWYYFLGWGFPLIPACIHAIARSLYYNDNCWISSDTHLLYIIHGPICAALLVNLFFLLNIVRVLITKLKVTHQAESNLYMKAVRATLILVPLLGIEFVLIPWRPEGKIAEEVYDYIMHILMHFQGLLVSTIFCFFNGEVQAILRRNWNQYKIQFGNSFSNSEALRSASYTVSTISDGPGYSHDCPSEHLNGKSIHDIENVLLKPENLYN
# Sequence (O60895 43-175): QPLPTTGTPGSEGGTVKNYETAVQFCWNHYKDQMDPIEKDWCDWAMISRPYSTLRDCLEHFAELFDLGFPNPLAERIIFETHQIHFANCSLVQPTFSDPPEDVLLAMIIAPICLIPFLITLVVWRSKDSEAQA
# measurement-description: CLR/RAMP2 arrestin assay, antagonist mode (ADM-stimulated)
# Type: cell-based
// CLR/RAMP2 Max Activity % of positive control (antagonist) lookup, one value per entry

>>> reported_measurement("PEG2000-K[PAL]VQKLAHQIYQFTDKDSAPVDPSSPHSY-NH2 [SEQ ID NO: 191]")
"101 % of positive control"

Ask | Please give measured CLR/RAMP2 Max Activity % of positive control (antagonist) of the following entry: Ace-Y(D-Ala)GF(D-Leu)-miniPEG-K(Pal)VQKLSAPVDPSSPHSY-NH2 [SEQ ID NO: 145]
Reply | 100 % of positive control

Ask | Please give measured CLR/RAMP2 Max Activity % of positive control (antagonist) of the following entry: Pal-KVQNLSAPVDPSSPHSY-NH2 [SEQ ID NO: 141]
Reply | 14 % of positive control

Ask | Please give measured CLR/RAMP2 Max Activity % of positive control (antagonist) of the following entry: Ace-NFVPTNVGPFAF-NH2 [SEQ ID NO: 144]
Reply | 0 % of positive control

Ask | Please give measured CLR/RAMP2 Max Activity % of positive control (antagonist) of the following entry: Pal-KVQKLAHQSAPVDPSSPHSY-NH2 [SEQ ID NO: 124]
Reply | 103 % of positive control
